Assay system: Protein cereblon/Apoptosis regulator Bcl-2 (Homo sapiens, UniProt P10415+Q96SW2)
Sequence (P10415 whole entry, looked up, one chain of several): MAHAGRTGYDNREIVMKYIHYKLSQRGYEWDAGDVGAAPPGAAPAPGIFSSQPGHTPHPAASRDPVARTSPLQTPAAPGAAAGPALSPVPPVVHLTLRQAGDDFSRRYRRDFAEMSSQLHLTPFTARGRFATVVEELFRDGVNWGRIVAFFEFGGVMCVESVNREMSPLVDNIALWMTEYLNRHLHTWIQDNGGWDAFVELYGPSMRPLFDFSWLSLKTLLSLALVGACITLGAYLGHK
Method notes: Induction of CRBN-mediated Bcl-2 degradation in human HeLa cells at 10 uM after 12 hrs by Western blot analysis relative to control
Assay type: cell-based
Calls of active or inactive are those of the source. The calls are words filed in the database; no cut-off is given here.
Property measured: Activity

Below, 6 compounds whose answers are already recorded.
CC(C)(C)c1ccc(C(=O)NCCN2C(=O)c3cccc4c(Sc5ccc(Br)cc5)ccc(c34)C2=O)cc1	inactive
N#CC1=C(NCCC(=O)NCCCCCC(=O)NCCCCCCNc2cccc3c2C(=O)N(C2CCC(=O)NC2=O)C3=O)c2ccc(Sc3ccc(Br)cc3)c3cccc(c23)C1=O (configuration not stated)	< 20%
N#CC1=C(C#N)c2ccc(Sc3ccc(Br)cc3)c3cccc(c23)C1=O	inactive
N#CC1=C(NCCC(=O)NCCCCNc2cccc3c2C(=O)N(C2CCC(=O)NC2=O)C3=O)c2ccc(Sc3ccc(Br)cc3)c3cccc(c23)C1=O (configuration not stated)	< 20%
N#CC1=C(NCCC(=O)NCCNc2cccc3c2C(=O)N(C2CCC(=O)NC2=O)C3=O)c2ccc(Sc3ccc(Br)cc3)c3cccc(c23)C1=O (configuration not stated)	< 20%
N#CC1=C(NCCC(=O)NCCOCCOCCNc2cccc3c2C(=O)N(C2CCC(=O)NC2=O)C3=O)c2ccc(Sc3ccc(Br)cc3)c3cccc(c23)C1=O (configuration not stated)	< 20%

Proceed to the following item.
### Prompt What value of Activity has been recorded for this entry: N#CC1=C(NCCC(=O)NCCCCCCNc2cccc3c2C(=O)N(C2CCC(=O)NC2=O)C3=O)c2ccc(Sc3ccc(Br)cc3)c3cccc(c23)C1=O (configuration not stated)
### Response < 20%

====

Assay system: Protein cereblon/Induced myeloid leukemia cell differentiation protein Mcl-1 (Homo sapiens, UniProt Q07820+Q96SW2)
Sequence (Q07820 whole entry, looked up): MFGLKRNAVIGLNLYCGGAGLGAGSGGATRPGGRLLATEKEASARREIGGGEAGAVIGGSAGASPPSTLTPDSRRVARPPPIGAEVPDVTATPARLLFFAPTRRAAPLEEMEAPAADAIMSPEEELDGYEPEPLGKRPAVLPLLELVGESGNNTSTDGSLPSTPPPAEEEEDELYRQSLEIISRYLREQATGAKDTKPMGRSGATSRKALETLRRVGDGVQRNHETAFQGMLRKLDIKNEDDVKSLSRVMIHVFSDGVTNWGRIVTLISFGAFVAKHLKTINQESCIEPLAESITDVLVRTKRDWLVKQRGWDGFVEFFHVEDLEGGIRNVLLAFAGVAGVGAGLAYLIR
Sequence (Q96SW2 whole entry, looked up): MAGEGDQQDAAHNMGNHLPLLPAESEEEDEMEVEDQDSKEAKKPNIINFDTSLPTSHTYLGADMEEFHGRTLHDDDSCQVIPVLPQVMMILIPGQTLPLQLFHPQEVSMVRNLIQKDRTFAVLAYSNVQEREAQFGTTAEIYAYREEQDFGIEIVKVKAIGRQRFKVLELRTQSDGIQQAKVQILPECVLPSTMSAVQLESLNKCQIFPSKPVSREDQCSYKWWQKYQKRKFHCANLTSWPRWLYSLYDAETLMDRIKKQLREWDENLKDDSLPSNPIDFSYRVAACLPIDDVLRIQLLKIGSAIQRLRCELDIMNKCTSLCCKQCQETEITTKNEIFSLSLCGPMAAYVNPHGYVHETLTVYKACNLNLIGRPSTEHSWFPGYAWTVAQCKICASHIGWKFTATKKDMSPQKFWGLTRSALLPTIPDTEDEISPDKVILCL
Method notes: Induction of CRBN-mediated Mcl-1 degradation in human HeLa cells at 10 uM after 12 hrs by Western blot analysis relative to control
Assay type: cell-based
Activity calls are given as the source filed them. The rule behind the calls is not given here.
Property measured: Activity

Take a look at these entries with their results.
N#CC1=C(C#N)c2ccc(Sc3ccc(Br)cc3)c3cccc(c23)C1=O	inactive
N#CC1=C(NCCC(=O)NCCCCCCNc2cccc3c2C(=O)N(C2CCC(=O)NC2=O)C3=O)c2ccc(Sc3ccc(Br)cc3)c3cccc(c23)C1=O (configuration not stated)	< 20%
CC(C)(C)c1ccc(C(=O)NCCN2C(=O)c3cccc4c(Sc5ccc(Br)cc5)ccc(c34)C2=O)cc1	inactive
N#CC1=C(NCCC(=O)NCCOCCOCCNc2cccc3c2C(=O)N(C2CCC(=O)NC2=O)C3=O)c2ccc(Sc3ccc(Br)cc3)c3cccc(c23)C1=O (configuration not stated)	< 20%
N#CC1=C(NCCC(=O)NCCCCNc2cccc3c2C(=O)N(C2CCC(=O)NC2=O)C3=O)c2ccc(Sc3ccc(Br)cc3)c3cccc(c23)C1=O (configuration not stated)	< 20%
N#CC1=C(NCCC(=O)NCCNc2cccc3c2C(=O)N(C2CCC(=O)NC2=O)C3=O)c2ccc(Sc3ccc(Br)cc3)c3cccc(c23)C1=O (configuration not stated)	< 20%

Next compound, please.
### Prompt State the recorded Activity for this entry: N#CC1=C(NCCC(=O)NCCCCCC(=O)NCCCCCCNc2cccc3c2C(=O)N(C2CCC(=O)NC2=O)C3=O)c2ccc(Sc3ccc(Br)cc3)c3cccc(c23)C1=O (configuration not stated)
### Response < 20%

Hey, just so you know, these numbers are from ChEMBL document CHEMBL4321796.
